METHOD_SUMMARY: growth inhibition of wild-type RFP versus h24-humanized GFP E. coli, dose response, h24 mutant GFP vs wild-type RFP, cherry-pick (AID 977629)
TEST_SETTINGS: E. coli WT-RFP / h24-humanized GFP mixed culture, 24 h; at 50 µM (top of the series)
Records with an inconclusive call do not appear. The source made the active and inactive calls.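 The calls were made as follows: active = drop in red signal of normal-ribosome bacteria at least twice that in human-like-ribosome bacteria, growth inhibited under 30%; inactive = the rest, inconclusive results apart.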

SAMPLE_SMILES: COc1ccc(-n2cc(-c3ccccc3)c3c(N4CCOCC4)ncnc32)cc1
activity change, negative = inhibition: 12.7 (inactive)

SAMPLE_SMILES: COc1ccc(Cn2c(-c3ccc(Cl)cc3)c[n+]3ccccc23)cc1
activity change, negative = inhibition: 21 (inactive)

SAMPLE_SMILES: C[C@@H]1CCCCO[C@H](CN(C)C(=O)CCCN(C)C)[C@H](C)CN([C@@H](C)CO)C(=O)c2cc(NC(=O)Nc3cccc4ccccc34)ccc2O1
activity change, negative = inhibition: 101 (inactive)

SAMPLE_SMILES: COc1ccc2[nH]c3c(=O)n(CCCCC(=O)NCCC(C)C)c(=S)[nH]c3c2c1
activity change, negative = inhibition: 64.3 (inactive)
